conditions: in ethyl acetate, 293.15 K
measured-quantity: solubility (mole fraction)

| structure-smiles-string | assay-result |
| --- | --- |
| O=C(O)c1cccc(O)c1O | 0.0547 |

----------
conditions: in ethyl formate, 283.15 K

| structure-smiles-string | solubility (mole fraction) |
| --- | --- |
| O=C(O)c1cccc(O)c1O | 0.0245 |

----------
conditions: in isopropyl acetate, 283.15 K

| structure-smiles-string | solubility (mole fraction) |
| --- | --- |
| O=C(O)c1cccc(O)c1O | 0.045 |

----------
settings: in ethyl formate, 308.15 K
measured-quantity: solubility (mole fraction)

| structure-smiles-string | assay-result |
| --- | --- |
| O=C(O)c1cccc(O)c1O | 0.0351 |
